B1: tRNA (parent)
chain: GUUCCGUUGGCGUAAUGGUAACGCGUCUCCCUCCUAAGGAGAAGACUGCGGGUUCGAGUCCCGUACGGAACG

variants of: B1; assay: yeast fitness relative to wild type (ratio to wild type); higher = fitter; tRNA-Arg(CCU), competitive growth, 37 C, YPD
Fewer inactive variants are shown than the library holds.

{"columns": ["mutation", "rel", "yeast fitness"],
 "data": [
  ["G9A A20U", "=", 0.829],
  ["U7A C22A A57C", "≤", 0.5],
  ["C55U G68C", "=", 0.702],
  ["C4A C22U C60U G67C", "=", 0.519],
  ["G17A C62U A69U", "=", 0.587],
  ["C4G C24U U32C C49A A57U C66U G68C", "≤", 0.5],
  ["A21U U47G G67A A69G", "≤", 0.5],
  ["C27G C30U A65U A70U", "=", 0.594],
  ["U2C G23A G38A G56C C61U", "≤", 0.5],
  ["C5G A21G A45U A69U", "=", 0.634],
  ["U16A A65G", "=", 0.933],
  ["A42C A57C", "=", 0.62],
  ["A15G C46U", "=", 0.987],
  ["C46G C49A G67A", "=", 0.606],
  ["A21U C27G A36U G39C", "≤", 0.5],
  ["G9C G48A A69C", "=", 0.627],
  ["U2G A20C G25A A69C", "≤", 0.5],
  ["C27A C31U A36U A45C", "≤", 0.5],
  ["U2A U28A A37C G58C A69G", "≤", 0.5],
  ["C49U U54G", "=", 0.562],
  ["U3C A14U A20C C24G C55U A69C", "≤", 0.5],
  ["G50A G67C G68U", "≤", 0.5],
  ["C29U C46G G51A", "=", 0.543],
  ["A20G C61A", "=", 0.706],
  ["A36U A45U C46A C66U A69U", "≤", 0.5],
  ["C4A C5U C27U A37G", "≤", 0.5],
  ["U26C G68U", "=", 0.821],
  ["C5A U8C C30G C31G A65C", "≤", 0.5],
  ["A20U C29G C49G G63C", "=", 0.543],
  ["A20U C34G G38C", "≤", 0.5],
  ["C4U U59G", "=", 0.909],
  ["C11G C49U", "=", 0.631],
  ["C29G U35G A42G C61U", "≤", 0.5],
  ["C5U A15G A42C C49A", "≤", 0.5],
  ["G6C U35C U59C", "≤", 0.5],
  ["C11A G51C C66G", "=", 0.713],
  ["U32G G41C", "=", 0.597],
  ["U7A U53A A65C A70G", "≤", 0.5],
  ["U3C", "=", 0.996],
  ["A14U A20U G67A", "=", 0.544],
  ["A14G A40C C62G C66U", "≤", 0.5],
  ["G17C A20U A42U G67A", "≤", 0.5],
  ["G25C C34G A57G", "≤", 0.5],
  ["U7A A14C A20G C66G", "≤", 0.5],
  ["U28A C29G G68C", "≤", 0.5],
  ["C33A G39C C49U U54A G68A", "≤", 0.5]
]}
